Catalogue of % binding of the fluorescently labeled mAb (IgG pre-incubation = 100) readings, one per entry.
Target: T1, human CD103 (integrin Alpha-E) / human integrin Beta-7 heterodimer on cells (human, UniProt P38570 19-1179; P26010 20-798)
T1 construct: the assay field tells which cells; also called hCD103/hBeta7; CHO.K1-hCD103/hBeta7
T1 sequence (P38570 19-1179 limits assumed, chain 1 of 2): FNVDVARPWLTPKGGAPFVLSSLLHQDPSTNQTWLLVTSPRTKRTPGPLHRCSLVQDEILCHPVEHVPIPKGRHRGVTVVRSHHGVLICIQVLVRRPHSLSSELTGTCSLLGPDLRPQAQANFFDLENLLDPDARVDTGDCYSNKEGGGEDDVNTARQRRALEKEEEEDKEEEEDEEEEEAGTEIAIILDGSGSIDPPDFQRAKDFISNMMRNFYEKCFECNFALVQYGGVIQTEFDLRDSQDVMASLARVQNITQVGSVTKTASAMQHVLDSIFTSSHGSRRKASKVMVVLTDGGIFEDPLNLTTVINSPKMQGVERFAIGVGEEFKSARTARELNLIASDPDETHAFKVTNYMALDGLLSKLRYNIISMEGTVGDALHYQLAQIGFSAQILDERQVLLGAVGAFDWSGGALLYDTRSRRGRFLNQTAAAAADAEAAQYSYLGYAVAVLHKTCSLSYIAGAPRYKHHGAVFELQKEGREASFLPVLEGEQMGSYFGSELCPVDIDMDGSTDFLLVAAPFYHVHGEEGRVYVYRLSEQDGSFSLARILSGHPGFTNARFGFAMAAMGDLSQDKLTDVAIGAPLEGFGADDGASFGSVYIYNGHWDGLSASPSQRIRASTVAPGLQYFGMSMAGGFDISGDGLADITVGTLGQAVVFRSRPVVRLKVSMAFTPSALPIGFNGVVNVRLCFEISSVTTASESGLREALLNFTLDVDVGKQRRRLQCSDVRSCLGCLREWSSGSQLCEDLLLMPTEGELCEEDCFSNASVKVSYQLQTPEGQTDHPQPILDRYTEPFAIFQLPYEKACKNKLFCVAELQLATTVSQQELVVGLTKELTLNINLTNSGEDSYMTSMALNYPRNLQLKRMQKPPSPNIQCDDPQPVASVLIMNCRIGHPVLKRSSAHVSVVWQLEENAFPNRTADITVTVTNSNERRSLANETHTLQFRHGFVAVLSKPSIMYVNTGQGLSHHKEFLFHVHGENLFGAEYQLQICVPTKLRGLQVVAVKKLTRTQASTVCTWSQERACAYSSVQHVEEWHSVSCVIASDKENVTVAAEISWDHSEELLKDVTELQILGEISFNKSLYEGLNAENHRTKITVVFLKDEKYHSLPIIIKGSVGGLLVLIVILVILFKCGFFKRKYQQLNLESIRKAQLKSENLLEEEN
T1 sequence (P26010 20-798 limits assumed, chain 2 of 2): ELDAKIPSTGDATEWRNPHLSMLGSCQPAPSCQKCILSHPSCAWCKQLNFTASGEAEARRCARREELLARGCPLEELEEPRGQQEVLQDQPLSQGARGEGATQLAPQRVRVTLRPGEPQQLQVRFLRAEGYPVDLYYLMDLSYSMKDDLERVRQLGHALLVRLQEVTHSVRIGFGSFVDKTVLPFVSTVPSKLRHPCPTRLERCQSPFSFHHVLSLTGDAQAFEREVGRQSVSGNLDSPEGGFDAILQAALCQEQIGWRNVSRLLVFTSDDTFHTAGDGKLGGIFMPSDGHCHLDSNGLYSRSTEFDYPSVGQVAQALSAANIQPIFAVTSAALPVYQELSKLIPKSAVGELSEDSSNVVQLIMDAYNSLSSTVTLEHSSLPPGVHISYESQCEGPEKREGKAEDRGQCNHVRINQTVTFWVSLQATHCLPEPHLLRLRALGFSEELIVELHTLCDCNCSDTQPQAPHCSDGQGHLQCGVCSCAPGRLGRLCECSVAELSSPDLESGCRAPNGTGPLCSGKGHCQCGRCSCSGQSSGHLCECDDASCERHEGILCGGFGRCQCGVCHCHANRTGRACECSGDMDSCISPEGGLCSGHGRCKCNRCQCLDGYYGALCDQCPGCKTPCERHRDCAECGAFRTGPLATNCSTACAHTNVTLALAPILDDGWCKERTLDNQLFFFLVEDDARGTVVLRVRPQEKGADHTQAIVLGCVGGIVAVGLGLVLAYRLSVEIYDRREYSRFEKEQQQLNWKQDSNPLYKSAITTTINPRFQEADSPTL
Experiment: flow cytometry competition on CD103+CD8+ T cells; pre-incubation with unlabeled BERACT; table n=2
Please respond with the number in % and leave the unit unwritten.

Example cases with answers are listed next.
{"BINDER": "hCD103.05A (antibody, mouse IgG1, V domains shown, Also tested labelled with AF647, conjugated with Df and labelled with 89Zr; these are written under this molecule; also called clone 05A; hCD103.05 mAb) VH: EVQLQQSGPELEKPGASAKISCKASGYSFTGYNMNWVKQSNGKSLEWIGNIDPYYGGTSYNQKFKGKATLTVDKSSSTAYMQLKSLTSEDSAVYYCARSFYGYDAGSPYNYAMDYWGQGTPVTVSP VL: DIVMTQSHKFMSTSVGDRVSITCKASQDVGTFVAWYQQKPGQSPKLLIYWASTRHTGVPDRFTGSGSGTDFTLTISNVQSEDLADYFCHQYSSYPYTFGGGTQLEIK", "VALUE_REPORTED": 4.9}
{"BINDER": "hCD103.01A (antibody, V domains shown, Also tested labelled with AF647, conjugated with Df and labelled with 89Zr; these are written under this molecule; also called clone 01A; hCD103.01 mAb) VH: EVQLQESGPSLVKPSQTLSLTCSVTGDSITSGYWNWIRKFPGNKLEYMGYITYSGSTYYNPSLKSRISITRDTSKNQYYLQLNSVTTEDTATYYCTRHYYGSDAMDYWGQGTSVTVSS VL: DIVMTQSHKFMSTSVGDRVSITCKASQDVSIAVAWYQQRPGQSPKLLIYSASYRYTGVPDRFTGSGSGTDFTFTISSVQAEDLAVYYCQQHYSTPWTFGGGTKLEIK", "VALUE_REPORTED": 4}

Then there is this binder:
Record hCD103.07A (antibody, mouse IgG1, V domains shown, also called clone 07A) VH: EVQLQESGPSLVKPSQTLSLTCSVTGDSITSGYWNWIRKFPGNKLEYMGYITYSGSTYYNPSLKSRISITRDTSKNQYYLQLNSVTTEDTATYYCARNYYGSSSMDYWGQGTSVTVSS VL: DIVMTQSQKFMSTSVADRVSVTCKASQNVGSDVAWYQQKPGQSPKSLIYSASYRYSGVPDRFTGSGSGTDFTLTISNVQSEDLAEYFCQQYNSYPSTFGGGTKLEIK . Reported % binding of the fluorescently labeled mAb (IgG pre-incubation = 100): 1
